meta.source: the supplement of paper PMC11451515

# Test system: SEM cells
# MEASUREMENT_NOTES: cell viability relative to DMSO control; higher = less cytotoxic
# STUDY_CONDITIONS: RPMI 5 mM glucose + 10% dialyzed FBS; 48 h; 0.000781 µM
MEASURE_NAME: cell viability (%)
Please reply with the bare figure in % and do not write the unit itself.

CCCCCCCCOc1ccccc1C(=O)Nc1ccc(C(=O)OCC[N+](C)(CC)CC)cc1    97
C[N+](C)(C)CC(=O)O.[Cl-]    81.5
CNC(=O)c1cc(Oc2ccc(NC(=O)Nc3ccc(Cl)c(C(F)(F)F)c3)cc2)ccn1    109
Clc1ccccc1C(c1ccccc1)(c1ccccc1)n1cccn1    124
O=C([O-])[C@H](CC(=O)N1C[C@H]2CCCC[C@H]2C1)Cc1ccccc1    85.1

Now for a further compound.
Memo: FC1=CC=C(CN2\C=C/C=C(/C(=O)N[C@@H](COC3=CC4=C(NC(=O)N4)C=C3)C5=CC=CC=C5)C2=O)C=C1F , reported cell viability: 79.8

* * *

Quick list: cell viability per entry.
# Tested on: NOMO1
# MEASUREMENT_NOTES: cell viability relative to DMSO control; higher = less cytotoxic
# STUDY_CONDITIONS: RPMI 5 mM glucose + 10% FBS; 48 h; 0.0211 µM
Just the number please, in %, no unit attached.

# annotated cases, reported cell viability shown
CN(C)/[N+]([O-])=N/Oc1cc(ON[N+](=O)N2CCN(C(=O)c3cc(Cc4n[nH]c(=O)c5ccccc45)ccc3F)CC2)c([N+](=O)[O-])cc1[N+](=O)[O-]    114
O=C(O)CSCC(=O)NC1CCSC1=O (centres undefined)    99.8
O=C(NCCCNc1nc(Nc2cccc(NC(=O)N3CCCC3)c2)ncc1I)c1cccs1    81.5
CC(Cc1ccc(O)c(O)c1)(NN)C(=O)O (centres undefined)    126
COC/1=C/[C@@H]2[C@@H]3CC4=C(C(=C(OC)C=C4)O)[C@]2(CCN3C)CC1=O    165
CC1(C)Cc2c(sc(NC(=S)NC(=O)c3ccccc3)c2C(=O)O)CO1    101

The reported value for C[N]1N=CC2=C1C=C(C(=C2)OC3=CC=C(NC(=O)\C4=C\C=C(\C)N(C4=O)C5=CC=C(F)C=C5)C=C3F)C6=C[NH]N=C6 in terms of cell viability is 121

So, COc1cccc2c(NCc3ccccc3)nc(-n3c(N)nc4ccccc43)nc12 ? Its cell viability was 105

Looking up C=C[C@H]1CN2CCC1C[C@@H]2[C@@H](O)c1ccnc2ccccc12 (some centres undefined) , I found its cell viability recorded as 85.4

* * *

# System: NOMO1
# MEASUREMENT_NOTES: cell viability relative to DMSO control; higher = less cytotoxic
# STUDY_CONDITIONS: RPMI 5 mM glucose + 10% dialyzed FBS; 48 h; 5.12 µM
MEASURE_NAME: cell viability (%)
Note: unit % is implicit; provide only the numeric part.

Some solved cases for reference:
Cc1ccc(NC(=O)c2cccc(N(C)C)c2)cc1NC(=O)c1ccc(O)cc1    138
O=C1CCC[C@@H]2[C@H]3CCC[N+]4([O-])CCC[C@@H](CN12)[C@@H]34 (some centres not stated)    51.3
O=C(NCCCNc1nc(Nc2cccc(NC(=O)N3CCCC3)c2)ncc1I)c1cccs1    83.1
CO[C@H]1/C=C/O[C@@]2(C)Oc3c(C)c(O)c4c(O)c(c(/C=N\N5CCN(C6CCCC6)CC5)c(O)c4c3C2=O)NC(=O)/C(C)=C\C=C\[C@H](C)[C@H](O)[C@@H](C)[C@@H](O)[C@@H](C)[C@H](OC(C)=O)[C@@H]1C    24.1
CCCC(CCC)C(=O)[O-]    98.6
O=P1(N(CCCl)CCCl)NCCCO1 (configuration not stated)    84.9

Next compound, please.
Lab note: Nc1nc(Nc2ccc([S+](N)(=O)[O-])cc2)nn1C(=O)c1c(F)cccc1F gave cell viability of 84.4

* * *

# Test system: SEM cells
# MEASUREMENT_NOTES: cell viability relative to DMSO control; higher = less cytotoxic
# STUDY_CONDITIONS: HPLM + 10% dialyzed FBS; 48 h; 0.19 µM
Items are presented alongside their recorded cell viability.
Record the value in %, omitting the unit from your answer.

COC1=CC(=CC=C1)C2=CC=C(NC(=O)/C3=C(/CCC3)C(O)=O)C(=C2)F    108

# cell viability of Cc1ccc(NC(=O)Nc2cc(C(F)(F)F)ccc2F)cc1Nc1ccc2c(c1)NC(=O)/C2=C\c1ccc[nH]1 = 127

The compound C[N]1N=CC2=C1C=C(C(=C2)OC3=CC=C(NC(=O)\C4=C\C=C(\C)N(C4=O)C5=CC=C(F)C=C5)C=C3F)C6=C[NH]N=C6 showed cell viability equal to 54

Measured cell viability, NC(=O)c1cnc(-c2ccc(C3(N)CCC3)cc2)c(-c2ccccc2)c1 : 127

* * *

# Tested on: SEM cells
# MEASUREMENT_NOTES: cell viability relative to DMSO control; higher = less cytotoxic
# STUDY_CONDITIONS: RPMI 5 mM glucose + 10% dialyzed FBS; 48 h; 0.00234 µM
MEASURE_NAME: cell viability (%)
Please state the figure in %; there is no need to write the unit.

O=C(O)CCNc1cc(N2CCc3ccccc3CC2)nc(-c2ccccn2)n1    116
COc1cccc2c(NCc3ccccc3)nc(-n3c(N)nc4ccccc43)nc12    73.7

The recorded cell viability with SEM cells for O=C(/C=C/C=C/c1ccc2c(c1)OCO2)N1CCCCC1 was 129

* * *

# System: NOMO1
# MEASUREMENT_NOTES: cell viability relative to DMSO control; higher = less cytotoxic
# STUDY_CONDITIONS: RPMI 5 mM glucose + 10% FBS; 48 h; 0.0211 µM
cell viability: recorded values
A number alone suffices; assume %.

COc1cc(Nc2ncc(F)c(Nc3ccc4c(n3)N(COP(=O)(O)O)C(=O)C(C)(C)O4)n2)cc(OC)c1OC    100
O=C(O)[C@@H](c1ccc(OCc2ccc3ccccc3n2)cc1)C1CCCC1    109
O=P1(N(CCCl)CCCl)NCCCO1 (stereo not given)    99.7
CN(CCOc1ccc(NS(C)(=O)=O)cc1)CCc1ccc(NS(C)(=O)=O)cc1    129

Continue with the compound presented below.
The compound identified as CCCNCC(O)COc1ccccc1C(=O)CCc1ccccc1 (stereo not given) registered its cell viability at 117

* * *

Entries and their AUC of viability dose-response curve values follow.
# System: SEM cells
# MEASUREMENT_NOTES: AUC of viability dose-response curve (% viability x log10 dose units); higher = less sensitive
# STUDY_CONDITIONS: RPMI 5 mM glucose + 10% FBS; 48 h
Please respond with just the number, no unit label.

Below: 5 compounds and their reported AUC of viability dose-response curve.
Cn1cc(-c2cnn3c(N)c(Br)c([C@@H]4CCCNC4)nc23)cn1    344
COc1cccc(Nc2c(C(N)=O)cnc3c(C)cc([S+](=O)([O-])c4cccc(C(=O)N(C)C)c4)cc23)c1    466
CN1C2=CC(=O)/C(=N/NC(N)=O)C=C2CC1S(=O)(=O)[O-].[Na+] (configuration not stated)    449
O=C(O)CCNc1cc(N2CCc3ccccc3CC2)nc(-c2ccccn2)n1    434
O=P1(N(CCCl)CCCl)NCCCO1 (configuration not stated)    405

For OCCn1cc(-c2ccc3c(c2)CC/C3=N\O)c(-c2ccncc2)n1 the compound record lists AUC of viability dose-response curve as 465

# AUC of viability dose-response curve of C=CCc1cc(OC)c(O)c(C(=O)NCCO)c1 = 442

* * *

# reported cell viability; entries follow
# System: NOMO1
# MEASUREMENT_NOTES: cell viability relative to DMSO control; higher = less cytotoxic
# STUDY_CONDITIONS: RPMI 5 mM glucose + 10% FBS; 48 h; 0.00234 µM
Reply with just the number (in %).

Lab book: cell viability of CC(=O)Oc1cc2c(s1)CCN(C(C(=O)C1CC1)c1ccccc1F)C2.Cl (stereo unspecified) noted as 92.7

Notebook: CO[C@H]1/C=C/O[C@@]2(C)Oc3c(C)c(O)c4c(O)c(c(/C=N\N5CCN(C6CCCC6)CC5)c(O)c4c3C2=O)NC(=O)/C(C)=C\C=C\[C@H](C)[C@H](O)[C@@H](C)[C@@H](O)[C@@H](C)[C@H](OC(C)=O)[C@@H]1C , cell viability read as 110

cell viability measured on Cc1cccc(N(C)C(=S)Oc2ccc3ccccc3c2)c1 = 94.2

Input Cn1cnc(-c2cc3nccc(Oc4ccc(NC(=S)NC(=O)Cc5ccccc5)cc4F)c3s2)c1 . Output cell viability: 88.3

Per the record, CCCNCC(O)COc1ccccc1C(=O)CCc1ccccc1 (stereo unspecified) has cell viability of 106

Reported cell viability of CCCCOc1ccc(CC(=O)NO)cc1 : 110

Record CCCCCCCCOc1ccccc1C(=O)Nc1ccc(C(=O)OCC[N+](C)(CC)CC)cc1 . Reported cell viability: 94.7

So, COc1ccccc1OCCNCC(O)COc1cccc2[nH]c3ccccc3c12 (stereo unspecified) ? Its cell viability was 112
